Data origin, for the record: the supplement of paper PMC11208160

// values below are reported recombinant UMI read abundance (log10)
# assay text: recombinant UMI read abundance after kanamycin selection (control-corrected) (log10(CPM+1)); higher = more efficient recombination; extreme values may be limits of the assay; sequences stand for … in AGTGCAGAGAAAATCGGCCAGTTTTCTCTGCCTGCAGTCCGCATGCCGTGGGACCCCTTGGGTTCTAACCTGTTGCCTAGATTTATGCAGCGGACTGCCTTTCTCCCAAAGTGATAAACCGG…AGGTTGGTTTCACT; site = the 11-nt donor;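 also: IS621 bridge recombinase in Escherichia coli cells against a fixed T5 target plasmid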

monomer sequence | recombinant UMI read abundance (log10)
GGAAACCCATGGACCGGTTTTCCCGGTAATCCGTATTTGCC (site GGAAACCCTGG) | 0
AAGCACCCATGGACCGGTTTTCCCGGTAATCCGTATTTGGG (site AAGCACGCTCC) | 0.00747
AATCATGCATGGACCGGTTTTCCCGGTAATCCGTATTTGGA (site AATAATGCTTC) | 0.666
CCGTTTACATGGACCGGTTTTCCCGGTAATCCGTATTTGCA (site CCGTTTACTAG) | 0
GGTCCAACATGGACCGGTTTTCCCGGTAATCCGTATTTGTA (site GGCCCAACTTA) | 0.0162
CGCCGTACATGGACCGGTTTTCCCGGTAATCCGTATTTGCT (site CGCCCTACTAG) | 0.301
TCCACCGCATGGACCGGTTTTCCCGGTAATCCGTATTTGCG (site TCCACAGCTCG) | 0.00578
TCATCCTCATGGACCGGTTTTCCCGGTAATCCGTATTTGCA (site TCATCCTCTTG) | 0.741
TCGAAGCCATGGACCGGTTTTCCCGGTAATCCGTATTTGGG (site GCGAAGCCTCC) | 0.0961
AACCACGCATGGACCGGTTTTCCCGGTAATCCGTATTTGGG (site AACCACGCTCC) | 0.0319
CTAATAACATGGACCGGTTTTCCCGGTAATCCGTATTTGAC (site CTAGTATCTGT) | 0
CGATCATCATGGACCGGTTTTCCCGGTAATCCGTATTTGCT (site AGATCTTCTAG) | 0
AAGTTCCCATGGACCGGTTTTCCCGGTAATCCGTATTTGTG (site ATGTTCCCTCA) | 0.0155
CGCTAGACATGGACCGGTTTTCCCGGTAATCCGTATTTGAG (site CGTTAGACTCT) | 0.00455
CGCGAGTCATGGACCGGTTTTCCCGGTAATCCGTATTTGCC (site CGCGAGTCTGG) | 2.43
GGTACGTCATGGACCGGTTTTCCCGGTAATCCGTATTTGAT (site GGTACGTCTAC) | 0.00659
CTCTCTACATGGACCGGTTTTCCCGGTAATCCGTATTTGAG (site CTCTCTACTCT) | 0.0107
CCTAAAGCATGGACCGGTTTTCCCGGTAATCCGTATTTGCT (site CCTAAAGCTAT) | 0
